Cited source for all entries: ChEMBL document CHEMBL1134109

- Target: NS3 (Hepatitis C virus) (UniProt A3EZJ3)
- Sequence (A3EZJ3 as listed by the source): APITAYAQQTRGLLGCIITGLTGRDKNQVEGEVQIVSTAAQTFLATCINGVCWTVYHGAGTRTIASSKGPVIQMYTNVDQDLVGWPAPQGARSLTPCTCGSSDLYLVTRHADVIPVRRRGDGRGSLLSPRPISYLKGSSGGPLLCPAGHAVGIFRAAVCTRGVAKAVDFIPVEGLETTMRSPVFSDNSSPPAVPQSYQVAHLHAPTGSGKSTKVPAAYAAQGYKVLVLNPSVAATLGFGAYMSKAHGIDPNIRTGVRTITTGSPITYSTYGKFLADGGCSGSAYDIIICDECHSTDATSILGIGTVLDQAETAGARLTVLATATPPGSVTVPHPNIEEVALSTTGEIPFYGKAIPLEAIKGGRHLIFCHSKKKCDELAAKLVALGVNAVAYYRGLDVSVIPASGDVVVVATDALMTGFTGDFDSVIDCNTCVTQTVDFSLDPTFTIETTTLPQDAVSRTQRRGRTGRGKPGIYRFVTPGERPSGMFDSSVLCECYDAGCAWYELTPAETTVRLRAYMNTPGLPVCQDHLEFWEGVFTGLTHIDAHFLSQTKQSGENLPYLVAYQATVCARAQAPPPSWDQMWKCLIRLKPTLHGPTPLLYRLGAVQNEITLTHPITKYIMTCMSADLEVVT
- Method: Inhibitory activity against hepatitis C virus helicase at 25 ug/mL
- Test context: Hepacivirus hominis
Measurement kind: inhibition (%)

Problem: May I ask what inhibition has been recorded for O=C(CCCCCCC(=O)Nc1ccc(-c2nc3ccccc3[nH]2)cc1)Nc1ccc(-c2nc3ccccc3[nH]2)cc1 ?
Solution: 75

Problem: May I ask what inhibition has been recorded for Cc1ccc2nc(-c3ccc(NC(=O)CCC(=O)Nc4ccc(-c5nc6ccc(C)cc6s5)cc4)cc3)sc2c1 ?
Solution: 14

a = O=C(CCCCC(=O)Nc1nc2ccccc2[nH]1)Nc1nc2ccccc2[nH]1
b = O=C(NCCCCCCNC(=O)Nc1ccc(-c2nc3ccccc3[nH]2)cc1)Nc1ccc(-c2nc3ccccc3[nH]2)cc1
c = O=C(/C=C/C(=O)Nc1ccc(-c2nc3ccccc3[nH]2)cc1)Nc1ccc(-c2nc3ccccc3[nH]2)cc1
d = O=C(CCCCC(=O)Nc1nccs1)Nc1nccs1
Problem: # ascending order, key=inhibition Reply with the labels, ordered as the question asks.
Solution: a, d, b, c
